assay: Cytotoxicity against mouse EN2 cells after 72 hrs by MTT assay; type: functional, cell-based; conditions: EN2, 72 h
In this section, each of the compounds is paired with its reported pIC50.
To interpret pIC50, take it as minus log10 of a concentration measured in moles per litre.

Compound	pIC50
C[C@H]1[C@H](O[C@H]2O[C@@H]3O[C@]4(C)CC[C@H]5[C@H](C)CC[C@@H]([C@H]2C)[C@@]35OO4)O[C@@H]2O[C@]3(C)CC[C@H]4[C@H](C)CC[C@@H]1[C@@]24OO3	6.96

Q) Reported pIC50 for C[C@@H]1CC[C@H]2[C@@H](C)C(=O)O[C@@H]3O[C@@]4(C)CC[C@@H]1[C@]32OO4 [ARTEMISININ] : what is it?
A) 6.01

Q) What value of pIC50 has been recorded for this entry: C[C@@H]1CC[C@@H]2[C@]34OO[C@](C)(CC[C@@H]13)O[C@H]4OC(=O)[C@@]21CO1
A) 4.90

Q) Returns the measured pIC50 for the input compound. Input: C[C@H]1[C@@H](O[C@H]2O[C@@H]3O[C@]4(C)CC[C@H]5[C@H](C)CC[C@@H]([C@H]2C)[C@@]35OO4)O[C@@H]2O[C@]3(C)CC[C@H]4[C@H](C)CC[C@@H]1[C@@]24OO3
A) 5.70

Q) Return reported pIC50; argument: C[C@@H]1CC[C@H]2[C@@H](C)C(=O)O[C@@H]3O[C@@]4(C)CC[C@@H]1[C@]32O4 [DEOXYARTEMISININ]
A) 3.95
